Biological target: SARS-CoV-2 MPRO (Severe acute respiratory syndrome coronavirus 2 (2019-nCoV) (SARS-CoV-2))
Test: SARS-CoV-2 Mpro enzymatic assay (FRET substrate cleavage)
Assay type: biochemical
Settings: M pro IC50, C-His6-tagged SARS-CoV-2 MPRO 25 nM, 30 min pre-incubation at RT, 60 min at 30° C., 10 doses from 25 μM
Items are presented alongside their recorded IC50.

[
  {
    "MOLECULE": "C[C@](C(=O)NC1CCC(F)(F)CC1)(c1cncnc1)N(C(=O)[C@H](F)Cl)c1ccc(SC(F)(F)F)cc1 (single isomer, unassigned) [Example 33a]",
    "STUDY TARGET": "SARS-CoV-2 MPRO (Severe acute respiratory syndrome coronavirus 2 (2019-nCoV) (SARS-CoV-2))",
    "ASSAY READOUT": "IC50",
    "REPORTED VALUE": "< 100 nM"
  },
  {
    "MOLECULE": "C[C@@](C(=O)NC1CCC(F)(F)CC1)(c1cncnc1)N(C(=O)[C@H](F)Cl)c1ccc(OC(F)(F)F)cc1F [Example 26b]",
    "STUDY TARGET": "SARS-CoV-2 MPRO (Severe acute respiratory syndrome coronavirus 2 (2019-nCoV) (SARS-CoV-2))",
    "ASSAY READOUT": "IC50",
    "REPORTED VALUE": "1000 to 10000 nM"
  }
]

Prompt: Which IC50 value is on record for CC(C(=O)N[C@H]1CC[C@H](OC(F)(F)F)CC1)(c1cncnc1)N(C(=O)[C@H](F)Cl)c1ccc(OC(F)(F)F)cc1 (stereo in doubt) ?
Response: < 100 nM

Prompt: Item: CC1(C)C[C@@H](NC(=O)[C@](C)(c2cncnc2)N(C(=O)[C@H](F)Cl)c2ccc(OC(F)(F)F)cc2)CCO1 (single isomer, unassigned) [Example 77d]
Response: > 10000 nM

Prompt: Item: C[C@](C(=O)NC1CCC(F)(F)CC1)(c1cncc(F)c1)N(C(=O)[C@H](F)Cl)c1ccc(OC(F)(F)F)cc1 [Example 11a]
Response: < 100 nM

Prompt: Item: C[C@](C(=O)N[C@@H]1CC[C@H](NC(=O)C(F)(F)F)C1)(c1cncc(F)c1)N(C(=O)[C@H](F)Cl)c1ccc(OC(F)(F)F)cc1 [Example 109a]
Response: < 100 nM

----------
Items are presented alongside their recorded pIC50.
Target: SARS-CoV-2 MPRO (Severe acute respiratory syndrome coronavirus 2 (2019-nCoV) (SARS-CoV-2), UniProt P0DTD1)
Assay: SARS-CoV-2 Mpro enzymatic assay (FRET substrate cleavage)
Format: biochemical
Details: C-His6-tagged SARS-CoV-2 MPRO 25 nM, 30 min pre-incubation at RT, 60 min at 30° C., 10 doses from 25 μM; read-out: M pro IC50
pIC50: −log10 of the molar value.

Study these solved cases before continuing.
[
  {
    "MOLECULE": "C[C@@](C(=O)NC1CCOCC1)(c1cncc(F)c1)N(C(=O)[C@H](F)Cl)c1ccc(OC(F)(F)Cl)cc1 [Example 98b]",
    "REPORTED VALUE": "5.00 to 6.00"
  },
  {
    "MOLECULE": "C[C@@](C(=O)NC1CCOCC1)(c1cncnc1)N(C(=O)[C@H](F)Cl)c1ccc(C2(C(F)(F)F)CC2)cc1 [Example 29b]",
    "REPORTED VALUE": "< 5.00"
  },
  {
    "MOLECULE": "C[C@](C(=O)NC1CCOCC1)(c1cncnc1)N(C(=O)[C@H](F)Cl)c1ccc(-c2nccs2)cc1 [Example 101a]",
    "REPORTED VALUE": "> 7.00"
  },
  {
    "MOLECULE": "C[C@@](C(=O)NC1CCC(F)(F)CC1)(c1cccnc1)N(C(=O)[C@H](F)Cl)c1ccc(SC(F)(F)F)cc1 [Example 104b]",
    "REPORTED VALUE": "5.00 to 6.00"
  }
]

Prompt: Which pIC50 value is on record for [2H][C@@](C(=O)NC1CCC(F)(F)CC1)(c1cncnc1)N(C(=O)[C@H](F)Cl)c1ccc(OC(F)(F)F)cc1 ?
Response: < 5.00

Prompt: Item: CC1(C)COCC[C@H]1NC(=O)[C@@](C)(c1cncnc1)N(C(=O)[C@H](F)Cl)c1ccc(OC(F)(F)F)cc1 [Example 76a]
Response: > 7.00

----------
Molecular target: SARS-CoV-2 MPRO (Severe acute respiratory syndrome coronavirus 2 (2019-nCoV) (SARS-CoV-2), UniProt P0DTD1)
Assay: SARS-CoV-2 Mpro enzymatic assay (FRET substrate cleavage)
Type: biochemical
Conditions: C-His6-tagged SARS-CoV-2 MPRO 25 nM, 30 min pre-incubation at RT, 60 min at 30° C., 10 doses from 25 μM; read-out: M pro IC50
pIC50: −log10 of the molar value.
ASSAY READOUT: pIC50

Study these solved cases before continuing.
[
  {
    "COMPOUND": "C[C@](C(=O)NC1CCC(F)(F)CC1)(c1cccnc1)N(C(=O)[C@H](F)Cl)c1ccc(SC(F)(F)F)cc1 [Example 104a]",
    "REPORTED VALUE": "> 7.00"
  },
  {
    "COMPOUND": "C[C@](C(=O)NC1CCC(F)(F)CC1)(c1cncnc1)N(C(=O)[C@H](F)Cl)c1ccc(OC(F)(F)Cl)cc1 [Example 92a]",
    "REPORTED VALUE": "> 7.00"
  },
  {
    "COMPOUND": "C[C@@](C(=O)NC1CCC(F)(F)CC1)(c1cncc(F)c1)N(C(=O)[C@H](F)Cl)c1ccc(-c2nccs2)cc1 [Example 102b]",
    "REPORTED VALUE": "6.00 to 7.00"
  },
  {
    "COMPOUND": "C[C@@](C(=O)NC1CCC(F)(F)CC1)(c1cncnc1)N(C(=O)[C@H](F)Cl)c1cccc(OC(F)(F)F)c1 [Example 112b]",
    "REPORTED VALUE": "< 5.00"
  },
  {
    "COMPOUND": "C[C@@](C(=O)NC1CCOCC1)(c1cncc(F)c1)N(C(=O)[C@H](F)Cl)c1ccc(-c2nccs2)cc1 [Example 103b]",
    "REPORTED VALUE": "< 5.00"
  }
]

Prompt: Which pIC50 value is on record for C[C@](C(=O)NC1CCOCC1)(c1cncnc1)N(C(=O)[C@H](F)Cl)c1ccc(SC(F)(F)F)cc1 [Example 34a] ?
Response: > 7.00

Prompt: Item: C[C@@](C(=O)NC1CCC(F)(F)CC1)(c1cncnc1)N(C(=O)[C@H](F)Cl)c1ccc(OC(F)(F)C(F)(F)F)cc1 [Example 90b]
Response: 6.00 to 7.00

----------
Items are presented alongside their recorded IC50.
Molecular target: SARS-CoV-2 MPRO (Severe acute respiratory syndrome coronavirus 2 (2019-nCoV) (SARS-CoV-2), UniProt P0DTD1)
Experiment: SARS-CoV-2 Mpro enzymatic assay (FRET substrate cleavage)
Format: biochemical
Settings: C-His6-tagged SARS-CoV-2 MPRO 25 nM, 30 min pre-incubation at RT, 60 min at 30° C., 10 doses from 25 μM; read-out: M pro IC50

[
  {
    "MOLECULE": "C[C@@](C(=O)NC1CCC(F)(F)CC1)(c1cncnc1)N(C(=O)[C@H](F)Cl)c1ccc(S(F)(F)(F)(F)F)cc1 [Example 22b]",
    "IC50": "1000 to 10000 nM"
  },
  {
    "MOLECULE": "C[C@@](C(=O)NCCc1cccc(F)c1)(c1cncnc1)N(C(=O)[C@H](F)Cl)c1ccc(OC(F)(F)F)cc1 [Example 36b]",
    "IC50": "> 10000 nM"
  }
]

# evaluate next
Prompt: Which IC50 value is on record for CC1(C)COCC[C@@H]1NC(=O)[C@@](C)(c1cncnc1)N(C(=O)[C@H](F)Cl)c1ccc(OC(F)(F)F)cc1 [Example 76b] ?
Response: 100 to 1000 nM
